system: MDA-MB-468 breast; assay: NCI tumour cell line growth inhibition, 48 h; in the data active = GI50 below about 0.43 µM; inactive = the rest
Answer with one of the outcomes YES for active, NO for inactive

[ask] Can you look up the reported call for `O=C(/C=C/c1ccco1)c1ccc(Nc2nc(Nc3ccc(F)cc3)nc(Nc3ccc(Cl)cc3)n2)cc1` for me?
[reply] NO

[ask] Can you look up the reported call for OC(c1cc2cc(Br)ccc2c2cc(Br)ccc12)C1CCCCN1 (stereo not given) for me?
[reply] NO

[ask] Can you look up the reported call for `O=C(Nc1ccc(Cl)c([N+](=O)[O-])c1)Nc1nc2ccccc2s1` for me?
[reply] NO

[ask] Can you look up the reported call for `O=[N+]([O-])c1ccc(N2CCN(Cc3ccccc3)CC2)c2c1no[n+]2[O-]` for me?
[reply] NO

[ask] Can you look up the reported call for `Nc1c(C(=O)Nc2ccccc2)sc2nc3c(cc12)CCCCCC3` for me?
[reply] YES

====

test system: MDA-MB-468 breast; assay: NCI tumour cell line growth inhibition, 48 h
Measurement label: GI50

[ask] Form entry - test system: MDA-MB-468 breast; read-out: GI50; molecule: `COc1ccc(C(=O)Cn2c(C(=O)c3ccc(OC)cc3)nc3ccccc32)cc1`
[reply] 431 nM

[ask] Form entry - test system: MDA-MB-468 breast; read-out: GI50; molecule: `O=[N+]([O-])c1cnc(Sc2ccncn2)c([N+](=O)[O-])c1`
[reply] 1720 nM

[ask] Form entry - test system: MDA-MB-468 breast; read-out: GI50; molecule: `CS(=O)(=O)c1ccc(Oc2cc(F)cc(C#N)c2)c2c1[C@H](O)[C@H](F)[C@@H]2F`
[reply] > 100000 nM

[ask] Form entry - test system: MDA-MB-468 breast; read-out: GI50; molecule: Cc1ccc(S(=O)ON2CCC(C(=O)O)(c3ccccc3)CC2)cc1 (centres undefined)
[reply] > 100000 nM

Reference for the values: PubChem BioAssay (NCI)
